- Test system: Caco-2
- method_notes: drug sensitivity score (DSS) for viability; higher = more toxic; extreme values may be limits of the assay
- condition_label: 72 h
attribute_measured: drug sensitivity score
# print the numeric value only

CN1CCN(C(=O)O[C@H]2c3nccnc3C(=O)N2c2ccc(Cl)cn2)CC1
0
NCC(=O)N[C@@H](CCC(N)=O)C(=O)O
0
C[N+](C)(C)CC#CCN1CCCC1=O
0
COc1ccc(S(=O)(=O)N2CCC[C@H]2C(=O)Nc2cc(C)cc(C)c2)cc1
0
COc1ccccc1NC(=O)OCC1CCN(C(=O)OC(C)(C)C)CC1
0

Inquiry: Please supply the value of reported drug sensitivity score for the item CC(C)C[C@@H](C(=O)N[C@H](C(=O)OC1CCCC1)c1ccccc1)[C@H](O)C(=O)NO
Reply text: 1.1

Inquiry: Please supply the value of reported drug sensitivity score for the item C[C@H](CCC(=O)O)[C@H]1CC[C@H]2[C@@H]3C(=O)C[C@@H]4CC(=O)CC[C@]4(C)[C@H]3CC(=O)[C@]12C [dehydrocholate-acid]
Reply text: 0

Inquiry: Please supply the value of reported drug sensitivity score for the item CC[N+](CC)(CC)CCC(O)(c1ccccc1)C1CCCCC1 (stereo not given)
Reply text: 0

Inquiry: Please supply the value of reported drug sensitivity score for the item CN1CCC[C@@H]1CCSc1ccc(O)cc1 [SIB-1553A]
Reply text: 0

Inquiry: Please supply the value of reported drug sensitivity score for the item CCCNC(C)C(=O)Nc1ccccc1C (stereo not given)
Reply text: 0

====

- Tested on: Vero E6
- method_notes: cell viability relative to DMSO; higher = less toxic
- condition_label: 72 h; 100 nM
Reported cell viability values are given for each entry in this list.
Use % as the unit, but write only the number.

The following molecules have reported results that may help.
O=C(OCCN1CCCCC1)c1c[nH]c2ccccc12
95.4
CNC(=O)c1ccc2c(c1)S(=O)(=O)c1ccccc1C2=O [BW-616U]
98.1

Inquiry: Please supply the value of reported cell viability for the item C=CCNc1ncnc2ccc(Br)cc12
Reply text: 95.8

Inquiry: Please supply the value of reported cell viability for the item CCc1nc2ccc(Cl)cn2c1C(=O)NCc1ccc(N2CCC(c3ccc(OC(F)(F)F)cc3)CC2)cc1
Reply text: 99.9

Inquiry: Please supply the value of reported cell viability for the item O=C1C(O)=C([C@H]2CC[C@H](c3ccc(Cl)cc3)CC2)C(=O)c2ccccc21
Reply text: 101

Inquiry: Please supply the value of reported cell viability for the item Cc1ccc(S(=O)(=O)/C=C/C#N)cc1
Reply text: 99.7

Inquiry: Please supply the value of reported cell viability for the item CN1C(=O)CC(c2ccccc2)C1=O (centres undefined) [phensuximide]
Reply text: 99.5

Inquiry: Please supply the value of reported cell viability for the item CC(C)c1ccccc1Cc1cc(C(=O)Nc2ccc(S(=O)(=O)c3ccccc3C(C)(C)C)cc2)c(O)c(O)c1O
Reply text: 96.1

Inquiry: Please supply the value of reported cell viability for the item COc1ccc(-n2nc(CCC(=O)N(C)O)cc2-c2ccc(Cl)cc2)cc1
Reply text: 99.5

====

- Test system: U2OS
- method_notes: cell viability relative to DMSO; higher = less toxic
- condition_label: 72 h; 1 nM
attribute_measured: cell viability (%)
Use % as the unit, but write only the number.

The following molecules have reported results that may help.
Nc1nc(N)c2nc(-c3ccccc3)c(N)nc2n1
102
C=CCc1cc(OC)c(O)c(C(=O)NCCO)c1 [alibendol]
102

Inquiry: Please supply the value of reported cell viability for the item CCc1nc2ccc(Cl)cn2c1C(=O)NCc1ccc(N2CCC(c3ccc(OC(F)(F)F)cc3)CC2)cc1
Reply text: 98.6

Inquiry: Please supply the value of reported cell viability for the item Nc1nc2ccc(Cl)cc2c2nc(-c3ccco3)nn12
Reply text: 102

Inquiry: Please supply the value of reported cell viability for the item Cc1cc(C(=O)Nc2cccc(C(=O)Nc3cccc(C(F)(F)F)c3)c2)on1
Reply text: 99

Inquiry: Please supply the value of reported cell viability for the item O=C(Nc1cccc(Cl)c1)Nc1ncc(CCNc2ncnc3ccsc23)s1
Reply text: 98.5

Inquiry: Please supply the value of reported cell viability for the item O=C1COc2c(CCNCCN(C(=O)CCNCCc3ccc(Cl)c(Cl)c3)C3CCCCC3)ccc(O)c2N1
Reply text: 102

Inquiry: Please supply the value of reported cell viability for the item OCC(Br)(Br)Br
Reply text: 95.3

Inquiry: Please supply the value of reported cell viability for the item CCCCCCCCCCCCCCCCCCCCCCO
Reply text: 92.3

Inquiry: Please supply the value of reported cell viability for the item N#Cc1cc(NC(=O)C(=O)O)c(Cl)c(NC(=O)C(=O)O)c1 [lodoxamide]
Reply text: 104

Inquiry: Please supply the value of reported cell viability for the item COc1cccc(OC)c1-c1ccc(C[C@H](NC(=O)c2c(Cl)cccc2Cl)C(=O)O)cc1
Reply text: 103

Inquiry: Please supply the value of reported cell viability for the item O=S(=O)(Cc1ccccc1)Nc1ccc(-c2ccc3c(cnn3-c3ccc(F)cc3)c2)c(C(F)(F)F)c1
Reply text: 94.7

Inquiry: Please supply the value of reported cell viability for the item COc1ccc(-c2cc3c(C)nc(N)nc3n([C@H]3CC[C@H](OCCO)CC3)c2=O)cn1
Reply text: 100

FYI, the data here is from the supplement of paper PMC13380429.
